Type: physicochemical
setup-conditions: SGF with pepsin, pH 1.5, 37° C., 0.5 mM; time 1 h
measure: Condition 1 Conversion (%)
Lab book: enter the figure in %, no units written.

COc1ccc([C@@]23CC/C(=N\NC(=O)C4(C(=O)O)CC4)C[C@@H]2N(C)CC3)cc1OC [Compound 243]	100

Fill in: Condition 1 Conversion (%) of CCCC1CO[C@@]2(CC[C@@]3(c4ccc(OC)c(OC)c4)CCN(C)C3C2)O1 (stereo partly shown) [Compound 238] is ___
0

Would you kindly share the measured Condition 1 Conversion (%) for CO/N=C1/CC[C@@]2(c3ccc(OC)c(OC)c3)CCN(C)[C@H]2C1 [Compound 035] ?
13.1

Look at this compound and give its reported Condition 1 Conversion (%). COc1ccc([C@@]23CCC(=NOCCOc4ccccc4)C[C@@H]2N(C)CC3)cc1OC [Compound 234]
0
